Data provenance: ChEMBL document CHEMBL3399982

# systemUnderTest: UniProt O42713
# Sequence (O42713 whole entry): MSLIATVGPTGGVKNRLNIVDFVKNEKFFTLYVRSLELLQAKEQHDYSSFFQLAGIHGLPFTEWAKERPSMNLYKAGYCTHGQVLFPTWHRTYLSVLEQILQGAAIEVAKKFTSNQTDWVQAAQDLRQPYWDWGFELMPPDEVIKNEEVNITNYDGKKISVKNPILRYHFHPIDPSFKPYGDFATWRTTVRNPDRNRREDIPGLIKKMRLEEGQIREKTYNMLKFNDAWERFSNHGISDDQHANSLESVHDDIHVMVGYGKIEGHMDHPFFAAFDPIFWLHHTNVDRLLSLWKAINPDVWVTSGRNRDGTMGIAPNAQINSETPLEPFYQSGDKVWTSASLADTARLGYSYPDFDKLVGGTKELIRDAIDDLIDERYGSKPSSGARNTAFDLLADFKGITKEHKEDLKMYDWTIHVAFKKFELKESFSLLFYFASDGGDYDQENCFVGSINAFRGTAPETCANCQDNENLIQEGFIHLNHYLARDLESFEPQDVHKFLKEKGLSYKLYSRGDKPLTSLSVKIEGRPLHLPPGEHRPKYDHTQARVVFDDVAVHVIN
# protocolText: Inhibition of mushroom tyrosinase assessed as inhibition of L-DOPA oxidase activity
# recordedConditions: concentration not given here

[
  {
    "molecule": "Oc1ccccc1C(O)/C=C/c1ccncc1 (stereo not drawn)",
    "unit": "%",
    "inhibition": 57.2
  },
  {
    "molecule": "O=C(/C=C/c1ccccn1)c1ccccc1O",
    "unit": "%",
    "inhibition": 56.8
  },
  {
    "molecule": "Oc1ccccc1C(O)/C=C/c1ccccn1 (stereo not drawn)",
    "unit": "%",
    "inhibition": 80.2
  },
  {
    "molecule": "CN(C)c1ccc(/C=C/C(=O)c2ccccn2)cc1",
    "unit": "%",
    "inhibition": 39.7
  },
  {
    "molecule": "COc1ccc(/C=C/C(=O)c2ccccn2)c(OC)c1",
    "unit": "%",
    "inhibition": 42.7
  },
  {
    "molecule": "O=C(/C=C/c1cccc([N+](=O)[O-])c1)c1ccccc1O",
    "unit": "%",
    "inhibition": 42.2
  },
  {
    "molecule": "O=C(/C=C/c1cccc([N+](=O)[O-])c1)c1ccccc1",
    "unit": "%",
    "inhibition": 18
  },
  {
    "molecule": "O=C(/C=C/c1ccncc1)c1ccccc1O",
    "unit": "%",
    "inhibition": 39.7
  },
  {
    "molecule": "CN(C)c1ccc(/C=C/C(=O)c2ccccc2O)cc1",
    "unit": "%",
    "inhibition": 27.2
  },
  {
    "molecule": "O=C(/C=C/c1ccc2ccccc2n1)c1ccccc1O",
    "unit": "%",
    "inhibition": 8.9
  },
  {
    "molecule": "O=C(/C=C/c1cnc2ccccc2c1)c1ccccc1O",
    "unit": "%",
    "inhibition": 12.3
  },
  {
    "molecule": "O=C(/C=C/c1ccccn1)c1ccccc1",
    "unit": "%",
    "inhibition": 34
  },
  {
    "molecule": "O=C(/C=C/c1cccnc1)c1ccccc1O",
    "unit": "%",
    "inhibition": 49.3
  }
]
